- Test system: P. aeruginosa MH602 lasB reporter strain (PlasB: gfp(ASV))
- assay.text: Quorum sensing inhibition assay, GFP fluorescence of lasB reporter strain
- Format: cell-based, Pseudomonas aeruginosa
- condition.context: Pseudomonas aeruginosa, read-out: Percentage inhibition of GFP fluorescence, 62.5 μM; ± standard deviation; NA: no activity
Answer 0.0 if inhibition at 62.5 µM is under 30%, and 1.0 if it is 30% or more.

[[record]]
molecule = "O=C(Cn1cc(-c2ccc(Br)cc2)nn1)Nc1nc2ccccc2[nH]1 [6j]"
assigned_label = 1.0

[[record]]
molecule = "O=C(CCCc1cn(CC(=O)NC2CCCC2)nn1)Nc1nc2ccccc2[nH]1 [11a]"
assigned_label = 1.0

[[record]]
molecule = "Cc1cc2nc(NC(=O)Cn3cc(-c4cccc([N+](=O)[O-])c4)nn3)[nH]c2cc1C [7n]"
assigned_label = 1.0

[[record]]
molecule = "CCCCCCCCCc1cn(CC(=O)Nc2nc3cc(C)c(C)cc3[nH]2)nn1 [7d]"
assigned_label = 1.0

[[record]]
molecule = "CCCCCc1cn(CC(=O)Nc2nc3cc(C)c(C)cc3[nH]2)nn1 [7b]"
assigned_label = 0.0

[[record]]
molecule = "O=C(Cn1cc(-c2ccc(O)cc2)nn1)Nc1nc2ccccc2[nH]1 [6m]"
assigned_label = 1.0

[[record]]
molecule = "O=C(Cn1cc(CCCC(=O)Nc2nc3ccccc3[nH]2)nn1)Nc1ccccn1 [11c]"
assigned_label = 0.0

[[record]]
molecule = "O=C(Cn1cc(-c2ccccc2)nn1)Nc1nc2ccccc2[nH]1 [6g]"
assigned_label = 0.0

[[record]]
molecule = "Cc1cc2nc(NC(=O)Cn3cc(-c4ccc(C(F)(F)F)cc4)nn3)[nH]c2cc1C [7l]"
assigned_label = 1.0

[[record]]
molecule = "O=C(CCCc1cn(-c2ccc([N+](=O)[O-])cc2)nn1)Nc1nc2ccccc2[nH]1 [11d]"
assigned_label = 0.0

[[record]]
molecule = "COc1ccc(-c2cn(CC(=O)Nc3nc4cc(C)c(C)cc4[nH]3)nn2)cc1 [7k]"
assigned_label = 0.0

[[record]]
molecule = "CCCc1cn(CC(=O)Nc2nc3cc(C)c(C)cc3[nH]2)nn1 [7a]"
assigned_label = 0.0

[[record]]
molecule = "CCCCCc1cn(CC(=O)Nc2nc3ccccc3[nH]2)nn1 [6b]"
assigned_label = 0.0

[[record]]
molecule = "O=C(Cn1cc(-c2ccc(F)cc2)nn1)Nc1nc2ccccc2[nH]1 [6h]"
assigned_label = 1.0

